- test name: Clearance after peroral administration of 0.2 mg/kg in dog was determined
- Type: ADME, organism-based, Canis lupus familiaris
- Set-up: dose 0.2 mg/kg, route oral
- measurement setup: in vivo, po
readout name: CL/F

* Nc1noc2ccc(-n3nnnc3C(=O)Nc3ccc(-c4ccccc4S(N)(=O)=O)cc3F)cc12 | 5 mL/min/kg

====

Reported values: Ki for Serine protease 1 (Homo sapiens), one per item.
readout name: Ki

- N=C(N)c1cccc(-n2nnnc2C(=O)Nc2ccc(-c3ccccc3S(N)(=O)=O)cc2)c1: 6.4 nM
- Nc1cc(-n2nnnc2C(=O)Nc2ccc(C(=O)N3CCCC3)cc2F)ccc1Cl: > 1600 nM
- Nc1cc(-n2nnnc2C(=O)Nc2ccc(-c3ccccc3S(N)(=O)=O)cn2)ccc1Cl: > 1600 nM
- Nc1noc2ccc(-n3nnnc3C(=O)Nc3ccc(C(=O)N4CCCC4)cc3F)cc12: > 1600 nM
- Nc1cc(-n2nnnc2C(=O)Nc2ccc(-c3ccccc3S(N)(=O)=O)cc2Cl)ccc1Cl: > 1600 nM
- Nc1noc2ccc(-n3nnnc3C(=O)Nc3ccc(-c4ccccc4S(N)(=O)=O)cc3F)cc12: > 5200 nM
- CS(=O)(=O)c1ccccc1-c1ccc(NC(=O)c2nnnn2-c2ccc3onc(N)c3c2)c(F)c1: > 1600 nM

====

- test name: Half-life period after peroral administration of 0.2 mg/kg in dog was determined
- Format: ADME, organism-based, Canis lupus familiaris
- Set-up: dose 0.2 mg/kg, route oral
- measurement setup: in vivo, po
readout name: half-life

* Nc1noc2ccc(-n3nnnc3C(=O)Nc3ccc(-c4ccccc4S(N)(=O)=O)cc3F)cc12 | 3.1 h

====

Reported values: log10 Ki for UniProt:P00742, one per item.
readout name: log10 Ki (log10 of the value in nM)

- Nc1cc(-n2nnnc2C(=O)Nc2ccc(-c3ccccc3S(N)(=O)=O)cc2)ccc1Cl: 0.73
- Nc1cc(-n2nnnc2C(=O)Nc2ccc(C(=O)N3CCCC3)cc2F)ccc1Cl: 0.48
- CS(=O)(=O)c1ccccc1-c1ccc(NC(=O)c2nnnn2-c2ccc3onc(N)c3c2)c(F)c1: -0.41
- Nc1noc2ccc(-n3nnnc3C(=O)Nc3ccc(-c4ccccc4S(N)(=O)=O)cc3F)cc12: -0.46
- Nc1cc(-n2nnnc2C(=O)Nc2ccc(-c3ccccc3S(N)(=O)=O)cc2Cl)ccc1Cl: 0.52

====

Below is a list of entries, each paired with its recorded pKi value.
- tgt: Coagulation factor X (Homo sapiens, UniProt P00742)
- Sequence (P00742 41-179 limits assumed): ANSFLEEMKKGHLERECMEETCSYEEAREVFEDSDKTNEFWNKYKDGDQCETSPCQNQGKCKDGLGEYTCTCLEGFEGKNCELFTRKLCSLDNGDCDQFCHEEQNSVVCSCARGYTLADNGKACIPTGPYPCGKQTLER
- Sequence (P00742 235-488 limits assumed): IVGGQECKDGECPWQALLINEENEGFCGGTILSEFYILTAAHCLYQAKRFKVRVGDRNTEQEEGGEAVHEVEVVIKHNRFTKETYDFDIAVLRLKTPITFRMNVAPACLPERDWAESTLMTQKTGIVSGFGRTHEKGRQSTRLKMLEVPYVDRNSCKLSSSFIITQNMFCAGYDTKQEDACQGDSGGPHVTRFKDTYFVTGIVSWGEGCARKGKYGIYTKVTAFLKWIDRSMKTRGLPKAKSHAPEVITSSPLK
pKi: −log10 of the molar value.
readout name: pKi

- Nc1noc2ccc(-n3nnnc3C(=O)Nc3ccc(C(=O)N4CCCC4)cc3F)cc12: 8.54
- Nc1noc2ccc(-n3nnnc3C(=O)Nc3ccc(-c4ccccc4S(N)(=O)=O)cc3)cc12: 9.01
- Nc1cc(-n2nnnc2C(=O)Nc2ccc(-c3ccccc3S(N)(=O)=O)cc2F)ccc1Cl: 8.92

====

- test name: Half-life period after intravenous administration of 0.5 mg/kg in dog was determined
- Format: ADME, organism-based, Canis lupus familiaris
- Set-up: dose 0.5 mg/kg, route intravenous
- measurement setup: in vivo
readout name: half-life (h)

* Nc1noc2ccc(-n3nnnc3C(=O)Nc3ccc(-c4ccccc4S(N)(=O)=O)cc3F)cc12 | 3.1
